- Assay Target: Cellular tumor antigen p53 (Homo sapiens) (UniProt P04637)
- Sequence (P04637 whole entry, looked up): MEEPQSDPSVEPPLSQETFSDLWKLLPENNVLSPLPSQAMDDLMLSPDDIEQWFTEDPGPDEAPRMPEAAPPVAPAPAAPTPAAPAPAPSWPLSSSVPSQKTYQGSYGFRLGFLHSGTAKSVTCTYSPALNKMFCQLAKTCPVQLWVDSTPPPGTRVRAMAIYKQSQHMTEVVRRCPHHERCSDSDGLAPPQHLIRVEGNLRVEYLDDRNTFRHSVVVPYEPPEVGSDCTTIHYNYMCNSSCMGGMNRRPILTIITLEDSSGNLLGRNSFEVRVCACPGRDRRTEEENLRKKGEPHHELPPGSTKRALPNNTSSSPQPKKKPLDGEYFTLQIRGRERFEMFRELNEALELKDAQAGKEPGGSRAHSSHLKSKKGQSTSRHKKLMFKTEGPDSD
- Assay Remarks: TOX21_p53_BLA_p2_ratio: Tox21 HCT-116 p53 Agonism Beta-lactamase Assay, Ratio, Phase 2 (AID 2283592)
Inconclusive results are not listed. The source made the active and inactive calls. Rule for the calls: active = hit-call score of the fitted dose curve at least 0.9, where 1 is the maximum; inconclusive = response in the unintended direction; inactive = score below 0.9.
Respond only with the outcome that fits, drawn from active, inactive

Reference set, count: 6
Molecule: O=C(CCCCCCCCc1cccnc1)N1CCC(C=C(c2ccccc2)c2ccccc2)CC1
Answer Label: inactive
//
Molecule: CCOCCOCCOCCO
Answer Label: inactive
//
Molecule: CC[C@H]1OC(=O)[C@H](C)[C@@H](O[C@H]2C[C@@](C)(OC)[C@@H](O)[C@H](C)O2)[C@H](C)[C@@H](O[C@@H]2O[C@H](C)C[C@H](N(C)C)[C@H]2O)[C@](C)(O)C[C@@H](C)C(=O)[C@H](C)[C@@H](O)[C@]1(C)O
Answer Label: inactive
//
Molecule: CCCCCCCCO
Answer Label: inactive
//
Molecule: CCC(C)(C)C(=O)O[C@H]1C[C@@H](C)C=C2C=C[C@H](C)[C@H](CC[C@@H]3C[C@@H](O)CC(=O)O3)[C@H]21
Answer Label: inactive
//
Molecule: CCOC(=O)c1ccc(C2CCC(NC[C@H](O)COc3ccc(O)c(NS(C)(=O)=O)c3)CC2)cc1 (stereo not given in full)
Answer Label: active

Call for entry Nc1nc2ncc(CNc3ccc(C(=O)N[C@@H](CCC(=O)O)C(=O)O)cc3)nc2c(=O)[nH]1 :
inactive

Record: O=c1[nH]c2ccc(S(=O)CCN3CCC(Cc4ccc(F)cc4)CC3)cc2o1 (stereo not given)
inactive

Record: CC(C)=CCCC(C)CCO (stereo not given)
inactive

Record: Cc1ccc(S(=O)(=O)O)cc1C
inactive

Record: CC(C)CCO
inactive

Record: O=C1CCCCCN1
inactive

Record: COc1ccc(/C=C/S(=O)(=O)NC(=O)c2ccc(C)cc2Cl)cc1
active

Record: Cc1ccc(N)cc1O
inactive

Record: Oc1ccc2c(c1)-c1ccccc1C2
inactive
